# TEST TARGET: purified VDAC1 (Homo sapiens, UniProt P21796)
# Sequence (P21796 whole entry, species assumed): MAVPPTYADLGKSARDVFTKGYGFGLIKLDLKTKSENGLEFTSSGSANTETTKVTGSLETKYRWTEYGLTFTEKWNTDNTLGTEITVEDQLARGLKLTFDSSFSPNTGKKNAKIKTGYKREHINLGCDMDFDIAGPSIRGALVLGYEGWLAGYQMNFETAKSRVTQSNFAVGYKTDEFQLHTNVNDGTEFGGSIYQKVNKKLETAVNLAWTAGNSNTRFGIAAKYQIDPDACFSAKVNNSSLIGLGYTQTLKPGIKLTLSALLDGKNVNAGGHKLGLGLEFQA
# PROCEDURE SUMMARY: Glass-bound peptide array probed with purified VDAC1 and anti-VDAC1 antibodies
# Assay type: binding
# Set-up: key: +: low; ++: medium; +++: high
# CONDITION NOTES: glass-bound peptide array incubated 4 h with purified VDAC1 (64 nM); antibody against VDAC1 N-terminus; chemiluminescence
METRIC: Spot intensity, detected using anti-N-terminus VDAC1

> print(dat)
                             sequence.entry                               test.target  result
1  VGKVIPELNGKLTGMAFRVPTANVS [2C14, array peptide from GAPDH1]  purified VDAC1 (Homo sapiens, UniProt P21796)     +++
2  NGKLVINGNPITIFQERDPSKIKWG [2B21, array peptide from GAPDH1]  purified VDAC1 (Homo sapiens, UniProt P21796)       +
3  FKDKYKQIFLGGVDKHTQFWRYFAG [1F22, array peptide from ANT3]  purified VDAC1 (Homo sapiens, UniProt P21796)       +
4  ELEEIVQPIISKLYGSAGPPPTGEE [2M15, array peptide from BiP1]  purified VDAC1 (Homo sapiens, UniProt P21796)      ++
5  LLGTFDLTGIPPAPRGVPQIEVTFE [2L23, array peptide from BiP1]  purified VDAC1 (Homo sapiens, UniProt P21796)     +++

Form field Spot intensity, detected using anti-N-terminus VDAC1, entry QVSVLPEGGETPLFKQFFKNWRDPD [2H20, array peptide from gelsolin isoform b] : ++

Lab note: measured Spot intensity, detected using anti-N-terminus VDAC1 of RYGRELRRMSDEFVDSFKKGLPRPK [1A13, array peptide from BAD] was +

Notebook: LIGIPPAPRGVPQIEVTFDIDANGI [2P3, array peptide from HSP-70] , Spot intensity, detected using anti-N-terminus VDAC1 read as +

Field Spot intensity, detected using anti-N-terminus VDAC1 (entry TGSGFTSLLMERLSVDYGKKSKLEF [2A4, array peptide from tubulin alpha 1b] ) reads +
